STUDY_TARGET: Smo (Homo sapiens, UniProt Q99835)
Sequence (Q99835 28-787): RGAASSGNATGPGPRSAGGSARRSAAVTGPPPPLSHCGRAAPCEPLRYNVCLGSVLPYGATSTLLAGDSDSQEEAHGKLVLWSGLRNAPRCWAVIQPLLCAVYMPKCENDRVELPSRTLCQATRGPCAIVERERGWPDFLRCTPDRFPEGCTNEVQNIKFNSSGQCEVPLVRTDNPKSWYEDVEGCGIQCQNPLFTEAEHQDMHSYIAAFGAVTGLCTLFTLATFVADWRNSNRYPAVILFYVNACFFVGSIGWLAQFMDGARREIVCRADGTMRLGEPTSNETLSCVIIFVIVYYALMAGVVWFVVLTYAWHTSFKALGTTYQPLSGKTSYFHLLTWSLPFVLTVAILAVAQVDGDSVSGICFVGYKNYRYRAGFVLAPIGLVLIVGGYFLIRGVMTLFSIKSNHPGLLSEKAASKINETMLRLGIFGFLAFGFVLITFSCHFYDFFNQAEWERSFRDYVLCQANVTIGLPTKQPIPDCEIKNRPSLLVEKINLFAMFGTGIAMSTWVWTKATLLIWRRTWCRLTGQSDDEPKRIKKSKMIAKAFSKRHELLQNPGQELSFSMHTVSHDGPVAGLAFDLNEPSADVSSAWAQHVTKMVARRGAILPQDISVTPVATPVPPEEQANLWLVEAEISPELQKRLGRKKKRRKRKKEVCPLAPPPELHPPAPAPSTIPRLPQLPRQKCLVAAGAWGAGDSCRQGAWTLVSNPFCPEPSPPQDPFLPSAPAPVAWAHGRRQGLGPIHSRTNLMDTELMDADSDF
EXPERIMENT_NOTES: Bodipy-Cyclopamine Binding Assay (confirmation assay), Hek293-SMO cells
pIC50: −log10 of the molar value.
READOUT: pIC50

I = Cc1cnc(-c2cc(N3CCc4nc(N5CCOCC5)sc4C3)ncc2Cl)c(C)c1
II = Cc1cnc(-c2cc(N3CCc4nc(N5CCC(O)CC5)ncc4C3)ncc2Cl)c(C)c1
Q: Quick one: lower pIC50, I or II ? // caller expects the label of the chosen entry
Result: I
(I: 6.77, II: 8.29)

----------
STUDY_TARGET: Smo (Homo sapiens, UniProt Q99835)
EXPERIMENT_NOTES: Bodipy-Cyclopamine Binding Assay (confirmation assay), Hek293-SMO cells
PROTOCOL_CONDITIONS: Smo IC50 (nM), confirmation assay; competition with 100 nM bodipy-cyclopamine, Hek293-SMO cells
READOUT: IC50 (nM)

Cc1cnc(-c2cc(N3CCn4cc(C(=O)Nc5ccccc5)nc4C3)ncc2Cl)c(C)c1 [Compound A-19] ... 311
Cc1cnc(-c2cc(N3CCn4cc(C(=O)OCC5CC5)nc4C3)ncc2Cl)c(C)c1 [Compound A16] ... 442

Data origin, for the record: patent US9695178B2
